Vd overview
test: pharmacokinetic properties test in rats; type: in vivo; settings: SD rat, 1 mg/kg intravenous injection, single, plasma; read-out: Vss

# input Fill in the blank: the reported Vd of `O=C([C@H](CO)c1ccc(F)cc1F)N1CC(=C2CN(S(=O)(=O)c3ccccn3)C2)C1` is ____.
# output 5.11 L/kg

# input Fill in the blank: the reported Vd of `N#Cc1ccc(S(=O)(=O)N2CC(=C3CN(C(=O)[C@H](CO)c4ccccc4)C3)C2)cc1` is ____.
# output 1.56 L/kg

###

experiment: pharmacokinetic properties test in rats; type: in vivo; conditions: SD rat, 1 mg/kg intravenous injection, single, plasma
VALUE TYPE: Cmax

SMILES STRING | Cmax
N#Cc1ccc(S(=O)(=O)N2CC(=C3CN(C(=O)[C@H](CO)c4ccccc4)C3)C2)cc1 | 689 ng/mL

# input Fill in the blank: the reported Cmax of `O=C([C@H](CO)c1ccc(F)cc1F)N1CC(=C2CN(S(=O)(=O)c3ccccn3)C2)C1` is ____.
# output 731 ng/mL
